Origin of measurements: patent US12685735B2

Measured IC50 of individual entries
measurement_target: BRG-1 (Homo sapiens, UniProt P51532)
Sequence (P51532 whole entry): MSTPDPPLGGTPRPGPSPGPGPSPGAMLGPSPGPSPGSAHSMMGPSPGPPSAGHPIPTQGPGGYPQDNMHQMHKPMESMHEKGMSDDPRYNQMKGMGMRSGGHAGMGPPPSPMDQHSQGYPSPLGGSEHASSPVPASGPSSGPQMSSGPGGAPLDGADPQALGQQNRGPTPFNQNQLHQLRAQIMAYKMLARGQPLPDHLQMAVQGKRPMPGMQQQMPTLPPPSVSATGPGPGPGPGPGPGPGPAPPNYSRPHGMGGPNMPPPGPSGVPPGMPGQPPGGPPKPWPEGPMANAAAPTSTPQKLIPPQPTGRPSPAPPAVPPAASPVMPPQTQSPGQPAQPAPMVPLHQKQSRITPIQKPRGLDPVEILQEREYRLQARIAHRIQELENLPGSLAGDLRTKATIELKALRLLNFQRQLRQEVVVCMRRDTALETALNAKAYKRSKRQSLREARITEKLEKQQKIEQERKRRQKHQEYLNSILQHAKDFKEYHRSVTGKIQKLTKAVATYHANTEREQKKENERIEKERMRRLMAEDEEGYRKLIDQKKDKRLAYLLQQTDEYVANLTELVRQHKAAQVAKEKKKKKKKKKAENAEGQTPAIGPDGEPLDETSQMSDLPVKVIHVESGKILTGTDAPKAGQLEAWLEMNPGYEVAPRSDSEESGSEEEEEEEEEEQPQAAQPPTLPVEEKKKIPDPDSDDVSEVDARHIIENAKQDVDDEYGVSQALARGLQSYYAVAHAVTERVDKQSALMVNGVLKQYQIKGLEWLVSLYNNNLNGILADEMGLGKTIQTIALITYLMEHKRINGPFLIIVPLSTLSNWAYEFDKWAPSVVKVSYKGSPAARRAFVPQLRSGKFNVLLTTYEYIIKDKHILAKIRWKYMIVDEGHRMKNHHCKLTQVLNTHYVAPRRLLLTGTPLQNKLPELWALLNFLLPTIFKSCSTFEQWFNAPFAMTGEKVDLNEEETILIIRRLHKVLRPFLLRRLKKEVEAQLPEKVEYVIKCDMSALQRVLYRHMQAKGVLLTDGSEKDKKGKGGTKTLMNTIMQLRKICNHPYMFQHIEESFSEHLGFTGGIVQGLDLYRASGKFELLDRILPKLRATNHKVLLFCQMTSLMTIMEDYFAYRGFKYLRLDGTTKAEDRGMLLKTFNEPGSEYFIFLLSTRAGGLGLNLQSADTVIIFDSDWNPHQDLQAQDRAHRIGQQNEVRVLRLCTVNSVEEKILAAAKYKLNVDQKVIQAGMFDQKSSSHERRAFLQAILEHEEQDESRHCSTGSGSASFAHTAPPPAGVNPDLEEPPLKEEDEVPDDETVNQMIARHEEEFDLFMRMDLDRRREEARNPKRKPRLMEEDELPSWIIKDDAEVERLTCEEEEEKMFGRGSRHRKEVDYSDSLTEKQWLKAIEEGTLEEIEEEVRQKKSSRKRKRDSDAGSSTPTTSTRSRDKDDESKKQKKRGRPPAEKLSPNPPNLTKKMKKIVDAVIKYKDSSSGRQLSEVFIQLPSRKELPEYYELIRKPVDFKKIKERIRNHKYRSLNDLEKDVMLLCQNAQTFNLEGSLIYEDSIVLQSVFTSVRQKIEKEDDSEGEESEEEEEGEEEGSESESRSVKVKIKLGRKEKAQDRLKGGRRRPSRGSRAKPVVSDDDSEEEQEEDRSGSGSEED
assay_comment: ATPase catalytic activity assay of BRG-1 (ADP-Glo)
Type: biochemical
experimental_setup: ATPase catalytic activity, ADP-Glo; read-out: BRG1 IC50 (μM)*

Known results for compounds:
compound=C[C@@H]1CN(c2cccc(-c3csc(NC(=O)CNC(=O)c4ccc5c(c4)[C@@](C)(C#N)CC5)n3)n2)C[C@H](C)O1 value_observed="1 to 5 µM"
compound="C[C@@H]1CN(c2cccc(-c3csc(NC(=O)CNC(=O)c4ccc5c(c4)C(C)(C#N)CNC5)n3)c2)C[C@H](C)O1 (stereo partly shown) [Compound 310]" value_observed="0.1 to 1 µM"
compound=C[C@@H](CO)S(=O)(=O)c1cccc(C(=O)NCC(=O)Nc2nc(-c3cccc(-c4ccncc4)c3)cs2)c1 value_observed="< 0.1 µM"
compound=CN1CCOc2ccc(-c3csc(NC(=O)CNC(=O)c4ccc5c(c4)[C@@](C)(CO)CC5)n3)cc21 value_observed="1 to 5 µM"
compound="CC1(C#N)CCOc2ccc(C(=O)NCC(=O)Nc3nc(-c4cccc([C@H]5CC5(F)F)n4)cs3)cc21 (stereo in doubt)" value_observed="1 to 5 µM"

(Q) Answer with IC50 of CC1(CN)CCc2ccc(C(=O)NCC(=O)Nc3nc(-c4cccc(-c5ccncc5)c4)cs3)cc21 (stereo not shown) measured for BRG-1 (Homo sapiens, UniProt P51532).
(A) 1 to 5 µM

(Q) Specify IC50 for Cc1cc(-c2cccc(-c3csc(NC(=O)CNC(=O)c4ccc5c(c4)[C@@](C)(CO)CCC5)n3)n2)ncn1 , system BRG-1 (Homo sapiens, UniProt P51532).
(A) > 5 µM

---

measurement_target: BRG-1 (Homo sapiens, UniProt P51532)
assay_comment: ATPase catalytic activity assay of BRG-1 (ADP-Glo)
Format: biochemical
experimental_setup: ATPase catalytic activity, ADP-Glo, 30 nM BRG-1, 400 μM ATP; read-out: BRG1 Max % Inhibition
# Emax values compiled below

compound="CC1(C#N)CCOc2ccc(C(=O)NCC(=O)Nc3nc(-c4cccc(C(F)F)n4)cs3)cc21 (stereo in doubt)" measurement_target="BRG-1 (Homo sapiens, UniProt P51532)" metric_name=Emax value_observed="> 95%"
compound="C[C@@H]1CN(c2cccc(-c3csc(NC(=O)CNC(=O)c4ccc5c(c4)C(C)(C#N)COC5)n3)n2)C[C@H](C)O1 (stereo in doubt) [Compound 421]" measurement_target="BRG-1 (Homo sapiens, UniProt P51532)" metric_name=Emax value_observed="> 80%"
compound="COc1cccc(-c2csc(NC(=O)CNC(=O)c3ccc4c(c3)C(C)(C#N)CCN4)n2)c1 (stereo not shown)" measurement_target="BRG-1 (Homo sapiens, UniProt P51532)" metric_name=Emax value_observed="> 90%"
compound=C[C@@H]1CN(c2cccc(-c3csc(NC(=O)CNC(=O)c4ccc5c(c4)[C@](C)(O)COC5)n3)c2)C[C@H](C)O1 measurement_target="BRG-1 (Homo sapiens, UniProt P51532)" metric_name=Emax value_observed="> 95%"
compound="C[C@@H]1CN(c2cccc(-c3csc(NC(=O)CNC(=O)c4ccc5c(c4)C(C#N)(CO)CCO5)n3)c2)C[C@H](C)O1 (stereo partly shown)" measurement_target="BRG-1 (Homo sapiens, UniProt P51532)" metric_name=Emax value_observed="> 95%"
compound=Cn1ccc2ccc(-c3csc(NC(=O)CNC(=O)c4ccc5c(c4)[C@@](C)(C#N)CCO5)n3)cc2c1=O measurement_target="BRG-1 (Homo sapiens, UniProt P51532)" metric_name=Emax value_observed="> 95%"
compound=C[C@@H]1CN(c2cccc(-c3csc(NC(=O)[C@H](C)NC(=O)c4ccnc(C(C)(C)C)c4)n3)c2)C[C@H](C)O1 measurement_target="BRG-1 (Homo sapiens, UniProt P51532)" metric_name=Emax value_observed="> 95%"
compound="C[C@@H]1CN(c2cccc(-c3csc(NC(=O)CNC(=O)c4cccc([C@@]5(C)COC[C@@H]5O)c4)n3)n2)C[C@H](C)O1 (stereo in doubt)" measurement_target="BRG-1 (Homo sapiens, UniProt P51532)" metric_name=Emax value_observed="> 95%"
compound=C[C@@H]1CN(c2cccc(-c3csc(NC(=O)CNC(=O)c4cccc(C5(C(F)F)COC5)c4)n3)c2)C[C@H](C)O1 measurement_target="BRG-1 (Homo sapiens, UniProt P51532)" metric_name=Emax value_observed="> 95%"
compound=C[C@@H]1CN(c2cccc(-c3csc(NC(=O)[C@H](CO)NC(=O)c4ccnc(C(C)(C)C)c4)n3)c2)C[C@H](C)O1 measurement_target="BRG-1 (Homo sapiens, UniProt P51532)" metric_name=Emax value_observed="> 90%"

(Q) Quickly give me recorded Emax for C[C@@H]1CN(c2cccc(-c3csc(NC(=O)CNC(=O)c4cncc(C(C)(C)C)c4)n3)c2)C[C@H](C)O1
(A) > 95%

(Q) Name the recorded Emax of the compound listed here: CC1(C#N)CCOc2ccc(C(=O)NCC(=O)Nc3nc(-c4cccc(N5CCC5)c4)cs3)cc21 (stereo in doubt)
(A) > 95%

(Q) Retrieve Emax measured for C[C@@H]1CN(c2cccc(-c3csc(NC(=O)CNC(=O)c4ccc5c(c4)C(C)(C#N)CO5)n3)c2)C[C@H](C)O1 (stereo in doubt) and print it.
(A) > 95%

(Q) Fill in Emax for record C[C@H](NC(=O)c1ccc2c(c1)C(C)(CO)CC2)C(=O)Nc1nc(-c2cccc(N3CCC3)c2)cs1 (stereo in doubt)
(A) > 95%

(Q) Give the reported Emax for this compound. Cc1cncc(-c2cccc(-c3csc(NC(=O)CNC(=O)c4ccc5c(c4)C(C)(CO)CC5)n3)c2)n1 (stereo in doubt)
(A) > 95%

(Q) Let me know recorded Emax for CC1(C#N)CCOc2ccc(C(=O)NCC(=O)Nc3nc(-c4cccc(C5CC5)n4)cs3)cc21 (stereo in doubt) , thanks.
(A) > 95%

(Q) Answer with reported Emax of C[C@@H]1CN(c2cccc(-c3csc(NC(=O)CNC(=O)c4ccc5c(c4)C(C)(C#N)COC5)n3)n2)C[C@H](C)O1 (stereo in doubt) [Compound 420]
(A) > 95%

(Q) Answer with the recorded Emax of C[C@@H]1CN(c2cccc(-c3csc(NC(=O)CNC(=O)c4ccnc(C(C)(C#N)CO)c4)n3)c2)C[C@H](C)O1 (stereo in doubt) only.
(A) > 85%

(Q) Quick one: give measured Emax for CC1(C#N)CCOc2ccc(C(=O)NCC(=O)Nc3nc(-c4cccc([C@@H]5CC5(F)F)c4)cs3)cc21 (stereo in doubt)
(A) > 95%

(Q) Give Emax for CC1(C#N)CCOc2ccc(C(=O)NCC(=O)Nc3nc(-c4cccc(C(F)F)c4)cs3)cc21 (stereo in doubt)
(A) > 95%

---

The entries below come with measured IC50 values attached.
measurement_target: BRG-1 (Homo sapiens, UniProt P51532)
assay_comment: ATPase catalytic activity assay of BRG-1 (ADP-Glo)
Assay type: biochemical
experimental_setup: ATPase catalytic activity, ADP-Glo; read-out: BRG1 IC50 (μM)*

Here's what some known entries look like.
compound="CC1(C#N)CCOc2ccc(C(=O)NCC(=O)Nc3nc(-c4cccc([C@@H]5CC5(F)F)n4)cs3)cc21 (stereo in doubt) [Compound 380]" value_observed="1 to 5 µM"
compound="C[C@@]1(C#N)COCc2ccc(C(=O)NCC(=O)Nc3nc(-c4cc(F)c5c(c4)OCC5)cs3)cc21 [Compound 353]" value_observed="< 0.1 µM"
compound="C[C@@H]1CN(c2cccc(-c3csc(NC(=O)CNC(=O)c4ccc5c(c4)C4(CCO4)COC5)n3)n2)C[C@H](C)O1 (stereo partly shown) [Compound 376]" value_observed="0.1 to 1 µM"

(Q) For the compound C[C@@]1(C#N)COCc2ccc(C(=O)NCC(=O)Nc3nc(-c4cc(F)cc(C5CCO5)c4)cs3)cc21 (stereo partly shown) [Compound 316] , report IC50.
(A) < 0.1 µM

---

measurement_target: BRG-1 (Homo sapiens, UniProt P51532)
assay_comment: ATPase catalytic activity assay of BRG-1 (ADP-Glo)
Format: biochemical
experimental_setup: ATPase catalytic activity, ADP-Glo; read-out: BRG1 IC50 (μM)*
List of IC50 values.

Consider the reported IC50 for these molecules:
molecule="O=C(CNC(=O)c1ccc2c(c1)[C@@](F)(C(F)F)COC2)Nc1nc(-c2cc(F)cc(N3CCC3)c2)cs1 [Compound 277]" value_observed="< 0.1 µM"
molecule="CC(C)(CN)c1cccc(C(=O)NCC(=O)Nc2nc(-c3cccc(-c4ccncc4)c3)cs2)c1 [Compound 64]" value_observed="1 to 5 µM"

(Q) Note down IC50 recorded for C[C@@H]1CN(c2cccc(-c3csc(NC(=O)CNC(=O)c4ccc(Cl)c(C(C)(C)CO)c4)n3)n2)C[C@H](C)O1 [Compound 241]
(A) 0.1 to 1 µM

(Q) Query IC50 for Cc1cc(-c2cccc(-c3csc(NC(=O)CNC(=O)c4cccc(C(C)(C)CO)c4)n3)c2)nc(C)n1 [Compound 93]
(A) 0.1 to 1 µM
